biological target: recombinant human Meningioma Expressed Antigen 5 (MGEA5), also referred to as O-GlcNAcase (OGA) (Homo sapiens, UniProt O60502); construct: Full length OGA enzyme was purchased at OnGene (cat #TP322411); purchased OnGene (so in the source); assay: OGA biochemical assay: inhibition of hydrolysis of fluorescein mono-ß-D-N-Acetyl-Glucosamine (FM-GlcNAc), fluorescence readout; conditions: FM-GlcNAc substrate
Sequence (O60502 whole entry): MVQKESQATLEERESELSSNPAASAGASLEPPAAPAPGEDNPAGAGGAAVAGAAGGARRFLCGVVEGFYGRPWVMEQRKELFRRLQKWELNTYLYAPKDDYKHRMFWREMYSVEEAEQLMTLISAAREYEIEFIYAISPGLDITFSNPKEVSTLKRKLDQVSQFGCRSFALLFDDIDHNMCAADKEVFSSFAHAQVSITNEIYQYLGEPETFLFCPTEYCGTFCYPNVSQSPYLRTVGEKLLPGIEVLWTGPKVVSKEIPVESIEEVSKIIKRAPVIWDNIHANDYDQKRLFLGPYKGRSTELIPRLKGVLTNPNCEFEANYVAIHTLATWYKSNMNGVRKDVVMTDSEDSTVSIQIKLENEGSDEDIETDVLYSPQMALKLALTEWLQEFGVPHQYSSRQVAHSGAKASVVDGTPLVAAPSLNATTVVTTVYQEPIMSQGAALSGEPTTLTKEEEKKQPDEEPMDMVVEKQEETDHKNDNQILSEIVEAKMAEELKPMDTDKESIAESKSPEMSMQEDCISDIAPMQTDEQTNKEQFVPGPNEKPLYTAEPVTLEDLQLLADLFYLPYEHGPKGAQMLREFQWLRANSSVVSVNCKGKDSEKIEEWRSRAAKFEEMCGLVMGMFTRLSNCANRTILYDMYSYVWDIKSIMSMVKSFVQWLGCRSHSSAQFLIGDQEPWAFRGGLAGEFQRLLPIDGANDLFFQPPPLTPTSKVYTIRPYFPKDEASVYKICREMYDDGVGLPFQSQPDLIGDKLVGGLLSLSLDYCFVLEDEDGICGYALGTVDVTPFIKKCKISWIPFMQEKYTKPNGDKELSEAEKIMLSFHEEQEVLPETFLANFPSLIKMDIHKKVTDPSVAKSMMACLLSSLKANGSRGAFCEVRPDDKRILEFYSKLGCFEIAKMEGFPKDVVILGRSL
endpointName: Enzymatic hOGA; pIC50

INSERT INTO results (compound, endpointname, testvalue) VALUES
  ('CCCCn1ccc2c(Nc3c(C)ccc4[nH]c(C)nc34)nccc21', 'Enzymatic hOGA; pIC50', 7.06),
  ('Cc1cc(C(F)(F)F)cc(Cl)c1Nc1nccc2c1ccn2CC(C)(F)F', 'Enzymatic hOGA; pIC50', 8.58),
  ('CCC(O)Cn1ccc2c(Nc3c(C)ccnc3C)nccc21 (stereo not shown)', 'Enzymatic hOGA; pIC50', 7.44),
  ('Cc1cc(Cn2ccc3c(Nc4c(C)ccnc4C)nccc32)no1', 'Enzymatic hOGA; pIC50', 8.16),
  ('Cc1cc(C(F)(F)F)nc(C)c1Nc1nccc2c1ccn2CC(C)(F)F', 'Enzymatic hOGA; pIC50', 8.36),
  ('Cc1ccnc(C(C)C)c1Nc1nccc2c1ccn2CC1CCO1 (stereo not shown)', 'Enzymatic hOGA; pIC50', 8.67),
  ('CCC(F)(F)Cn1ccc2c(Nc3c(Cl)cccc3Cl)nccc21', 'Enzymatic hOGA; pIC50', 8.9),
  ('Cc1ccnc(C)c1Nc1nccc2c1ccn2CCC1CC1(F)F (stereo not shown)', 'Enzymatic hOGA; pIC50', 6.86),
  ('Cc1ccnc(C)c1Nc1nccc2c1ccn2CC1COC1', 'Enzymatic hOGA; pIC50', 6.03),
  ('CC[C@@H](O)Cn1ccc2c(Nc3c(C)cc(F)cc3C)nccc21 [Compound 145a]', 'Enzymatic hOGA; pIC50', 7.79),
  ('Cc1ccnc(C(C)C)c1Nc1nccc2c1ccn2CC(C)(F)F', 'Enzymatic hOGA; pIC50', 8.81),
  ('CCC(C)(O)Cn1ccc2c(Nc3c(Cl)cc(F)cc3Cl)nccc21 (stereo not shown)', 'Enzymatic hOGA; pIC50', 6.64),
  ('Cc1cc(OC(F)F)nc(C)c1Nc1nccc2c1ccn2CC1CC(F)(F)C1', 'Enzymatic hOGA; pIC50', 7.56),
  ('Cc1cc(Cl)cc(C(F)(F)F)c1Nc1nccc2c1ccn2CC(C)(F)F', 'Enzymatic hOGA; pIC50', 8.59),
  ('CC[C@H](O)Cn1ccc2c(Nc3c(C)cc(F)cc3C)nccc21 [Compound 145b]', 'Enzymatic hOGA; pIC50', 8.46),
  ('CCCCn1ccc2c(Nc3c(Cl)cnc4c3OCCO4)nccc21', 'Enzymatic hOGA; pIC50', 7.46),
  ('CCC(C)Cn1ccc2c(Nc3c(C)ccnc3C)nccc21.Cl (stereo not shown)', 'Enzymatic hOGA; pIC50', 7.83),
  ('CC[C@@H](O)Cn1ccc2c(Nc3c(C)cc(C#N)cc3Cl)nccc21 [Compound 123a]', 'Enzymatic hOGA; pIC50', 7.56),
  ('Cc1cncc(C(C)(C)O)c1Nc1nccc2c1ccn2CC1CCO1 (stereo not shown)', 'Enzymatic hOGA; pIC50', 7.91);

Reference source for all entries: patent US20210277003A1
